Recorded inhibition at 5 µM by entry
- study_system: TRKB (Homo sapiens, UniProt Q16620)
- Sequence (Q16620 32-822, species assumed): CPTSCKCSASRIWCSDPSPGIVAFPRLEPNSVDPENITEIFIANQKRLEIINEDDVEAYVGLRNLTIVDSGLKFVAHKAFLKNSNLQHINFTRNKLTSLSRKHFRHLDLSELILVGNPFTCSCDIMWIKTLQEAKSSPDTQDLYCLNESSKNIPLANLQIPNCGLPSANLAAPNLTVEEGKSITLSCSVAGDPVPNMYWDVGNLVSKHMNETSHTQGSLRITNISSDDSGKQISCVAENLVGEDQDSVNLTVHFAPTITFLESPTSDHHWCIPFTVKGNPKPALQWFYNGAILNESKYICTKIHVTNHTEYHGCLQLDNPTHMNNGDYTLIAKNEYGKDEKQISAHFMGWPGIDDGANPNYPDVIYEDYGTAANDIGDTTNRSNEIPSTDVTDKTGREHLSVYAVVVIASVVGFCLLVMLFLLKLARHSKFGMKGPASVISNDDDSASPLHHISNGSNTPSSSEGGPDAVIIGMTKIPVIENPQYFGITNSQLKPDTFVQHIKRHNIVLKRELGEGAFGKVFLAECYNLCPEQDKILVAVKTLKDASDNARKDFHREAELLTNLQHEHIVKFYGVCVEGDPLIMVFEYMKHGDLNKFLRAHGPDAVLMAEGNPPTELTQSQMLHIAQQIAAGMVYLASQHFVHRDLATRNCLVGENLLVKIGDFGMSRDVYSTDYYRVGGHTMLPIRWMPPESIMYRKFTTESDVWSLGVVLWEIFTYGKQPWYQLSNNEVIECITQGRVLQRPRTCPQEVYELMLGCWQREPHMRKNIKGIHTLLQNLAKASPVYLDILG
- measurement_notes: Kinase panel (mobility shift)
- Format: biochemical

molecular_string	inhibition at 5 µM
CNC(=O)c1cc(Oc2ccc(NC(=O)c3nc(SC(C)C)oc3-c3ccc(F)cc3)cc2F)ccn1	50 to 79%
[2H]C([2H])([2H])NC(=O)c1cc(Oc2ccc(NC(=O)c3nc(SC)oc3-c3ccc(F)c(F)c3)cc2F)ccn1	< 50%
CSc1nc(C(=O)Nc2ccc(Oc3ccnc(C(=O)NCC(F)(F)F)c3)c(F)c2)c(-c2ccc(F)cc2)o1	< 50%
CNC(=O)c1cc(Oc2ccc(NC(=O)c3nc(SC)oc3-c3ccc(F)cc3F)cc2)ccn1	90 to 94%
CNC(=O)c1cc(Oc2ccc(NC(=O)c3nc(SC)oc3-c3ccc(Cl)s3)cc2)ccn1	< 50%
CNC(=O)c1cc(Oc2ccc(NC(=O)c3nc(SC)oc3-c3ccc(OC)cc3)cc2)ccn1	< 50%
CSc1nc(C(=O)Nc2ccc(Oc3cc4cnn(C)c4cc3Br)c(F)c2)c(-c2ccc(F)cc2)o1	< 50%
CNC(=O)c1cc(Oc2ccc(NC(=O)c3nc(NC)sc3-c3ccc(F)cc3F)cc2F)ccn1	50 to 79%
CSc1nc(C(=O)Nc2ccc(Oc3ccnc(C(=O)NC4CNC4)c3)c(F)c2)c(-c2ccc(F)cc2)o1	< 50%
CNC(=O)c1cc(Oc2ccc(NC(=O)c3nc(OC)oc3-c3ccc(F)cc3)cc2F)ccn1	50 to 79%
COc1nc(C(=O)Nc2ccc(Oc3ccnc(C(=O)NCC(F)(F)F)c3)c(F)c2)c(-c2ccc(F)cc2)o1	< 50%
CSc1nc(C(=O)Nc2ccc(Oc3ccnc(C(=O)NCCN(C)C)c3)c(F)c2)c(-c2ccc(F)cc2)o1	< 50%
CNC(=O)c1cc(Oc2ccc(NC(=O)c3nc(OC4CC4)oc3-c3ccc(F)cc3)cc2F)ccn1	< 50%
CSc1nc(C(=O)Nc2ccc(Oc3ccnc(C(=O)NC4COC4)c3)c(F)c2)c(-c2ccc(F)c(F)c2)o1	< 50%

* * *

- study_system: MUSK (Homo sapiens, UniProt O15146)
- Sequence (O15146 24-869, species assumed): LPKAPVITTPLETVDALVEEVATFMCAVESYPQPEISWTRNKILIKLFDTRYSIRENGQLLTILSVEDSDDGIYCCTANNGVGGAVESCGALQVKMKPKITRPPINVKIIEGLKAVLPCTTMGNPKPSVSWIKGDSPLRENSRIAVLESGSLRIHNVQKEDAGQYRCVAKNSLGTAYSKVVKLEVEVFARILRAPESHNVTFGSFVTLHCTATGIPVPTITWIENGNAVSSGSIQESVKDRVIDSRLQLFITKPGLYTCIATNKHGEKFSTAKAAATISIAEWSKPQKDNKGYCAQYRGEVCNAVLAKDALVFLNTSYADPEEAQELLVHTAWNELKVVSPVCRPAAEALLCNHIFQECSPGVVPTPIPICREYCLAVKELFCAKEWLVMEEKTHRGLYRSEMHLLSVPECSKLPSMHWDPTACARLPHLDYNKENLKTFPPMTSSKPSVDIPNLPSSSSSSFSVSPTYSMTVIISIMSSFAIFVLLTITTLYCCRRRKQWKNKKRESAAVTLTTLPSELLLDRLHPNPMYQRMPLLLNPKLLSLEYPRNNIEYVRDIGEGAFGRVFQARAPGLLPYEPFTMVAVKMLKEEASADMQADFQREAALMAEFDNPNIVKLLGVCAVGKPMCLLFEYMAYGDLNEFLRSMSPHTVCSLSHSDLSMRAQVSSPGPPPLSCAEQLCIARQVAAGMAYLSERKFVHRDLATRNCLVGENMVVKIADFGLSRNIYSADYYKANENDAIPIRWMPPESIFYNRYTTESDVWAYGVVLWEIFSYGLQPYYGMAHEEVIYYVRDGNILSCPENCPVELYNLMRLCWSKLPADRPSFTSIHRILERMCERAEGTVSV
- measurement_notes: Kinase panel (mobility shift)
- Type: biochemical

molecule	inhibition at 5 µM
[2H]C([2H])([2H])NC(=O)c1cc(Oc2ccc(NC(=O)c3nc(SC)oc3-c3ccc(F)s3)cc2F)ccn1 [Compound 35]	< 50%
CNC(=O)c1cc(Oc2ccc(NC(=O)c3nc(SC)oc3-c3ccc(F)cc3F)cc2F)ccn1 [Compound 12]	50 to 79%
CSc1nc(C(=O)Nc2ccc(Oc3ccnc(C(=O)NC4CNC4)c3)c(F)c2)c(-c2ccc(F)cc2)o1 [Compound 29]	< 50%
CNC(=O)c1cc(Oc2ccc(NC(=O)c3nc(S(C)(=O)=O)sc3-c3ccc(F)cc3)cc2F)ccn1 [Compound 13]	50 to 79%

* * *

- study_system: LCK (Homo sapiens, UniProt P06239)
- Sequence (P06239 whole entry, species assumed): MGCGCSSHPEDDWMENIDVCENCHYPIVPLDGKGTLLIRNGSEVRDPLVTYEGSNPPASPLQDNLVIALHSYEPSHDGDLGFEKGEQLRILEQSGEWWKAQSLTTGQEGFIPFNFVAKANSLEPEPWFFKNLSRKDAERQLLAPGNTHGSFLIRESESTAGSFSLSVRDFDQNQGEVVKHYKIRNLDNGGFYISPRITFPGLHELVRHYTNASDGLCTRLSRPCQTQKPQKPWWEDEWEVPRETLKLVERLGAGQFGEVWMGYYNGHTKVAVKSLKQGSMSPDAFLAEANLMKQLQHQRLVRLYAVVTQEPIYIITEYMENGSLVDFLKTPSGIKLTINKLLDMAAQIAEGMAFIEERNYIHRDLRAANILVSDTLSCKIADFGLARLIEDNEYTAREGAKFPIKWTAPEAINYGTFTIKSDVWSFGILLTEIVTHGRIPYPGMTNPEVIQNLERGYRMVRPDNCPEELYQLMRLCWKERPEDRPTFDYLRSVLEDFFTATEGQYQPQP
- measurement_notes: Kinase panel (mobility shift)
- Assay type: biochemical
measurement_type: inhibition at 5 µM

molecular_string	experimental_value
CNC(=O)c1cc(Oc2ccc(NC(=O)c3nc(OCC(F)(F)F)oc3-c3ccc(F)cc3)cc2F)ccn1	50 to 79%
CNC(=O)c1cc(Oc2ccc(NC(=O)c3nc(C4CC4)oc3-c3ccc(F)cc3)cc2F)ccn1	90 to 94%
CNC(=O)c1cc(Oc2ccc(NC(=O)c3nc(S(C)(=O)=O)sc3-c3ccc(F)cc3)cc2F)ccn1	90 to 94%
CSc1nc(C(=O)Nc2ccc(Oc3ccnc(C(=O)NC4CNC4)c3)c(F)c2)c(-c2ccc(F)s2)o1	< 50%
CNC(=O)c1cc(Oc2ccc(NC(=O)c3nc(SC)oc3-c3ccc(F)cc3F)cc2)ccn1	≥ 95%
CSc1nc(C(=O)Nc2ccc(Oc3ccnc(C(=O)NC4COC4)c3)c(F)c2)c(-c2ccc(F)cc2)o1	< 50%
CSc1nc(C(=O)Nc2ccc(Oc3ccnc(-c4cnn(C)c4)c3)c(F)c2)c(-c2ccc(F)cc2)o1	90 to 94%
